All figures here come from patent US20240024488A1.

Target: HiBit-BRG1 fusion protein (Homo sapiens, UniProt P51532)
Construct: expressed in transfected cells
Sequence (P51532 whole entry, the tested form may be a part): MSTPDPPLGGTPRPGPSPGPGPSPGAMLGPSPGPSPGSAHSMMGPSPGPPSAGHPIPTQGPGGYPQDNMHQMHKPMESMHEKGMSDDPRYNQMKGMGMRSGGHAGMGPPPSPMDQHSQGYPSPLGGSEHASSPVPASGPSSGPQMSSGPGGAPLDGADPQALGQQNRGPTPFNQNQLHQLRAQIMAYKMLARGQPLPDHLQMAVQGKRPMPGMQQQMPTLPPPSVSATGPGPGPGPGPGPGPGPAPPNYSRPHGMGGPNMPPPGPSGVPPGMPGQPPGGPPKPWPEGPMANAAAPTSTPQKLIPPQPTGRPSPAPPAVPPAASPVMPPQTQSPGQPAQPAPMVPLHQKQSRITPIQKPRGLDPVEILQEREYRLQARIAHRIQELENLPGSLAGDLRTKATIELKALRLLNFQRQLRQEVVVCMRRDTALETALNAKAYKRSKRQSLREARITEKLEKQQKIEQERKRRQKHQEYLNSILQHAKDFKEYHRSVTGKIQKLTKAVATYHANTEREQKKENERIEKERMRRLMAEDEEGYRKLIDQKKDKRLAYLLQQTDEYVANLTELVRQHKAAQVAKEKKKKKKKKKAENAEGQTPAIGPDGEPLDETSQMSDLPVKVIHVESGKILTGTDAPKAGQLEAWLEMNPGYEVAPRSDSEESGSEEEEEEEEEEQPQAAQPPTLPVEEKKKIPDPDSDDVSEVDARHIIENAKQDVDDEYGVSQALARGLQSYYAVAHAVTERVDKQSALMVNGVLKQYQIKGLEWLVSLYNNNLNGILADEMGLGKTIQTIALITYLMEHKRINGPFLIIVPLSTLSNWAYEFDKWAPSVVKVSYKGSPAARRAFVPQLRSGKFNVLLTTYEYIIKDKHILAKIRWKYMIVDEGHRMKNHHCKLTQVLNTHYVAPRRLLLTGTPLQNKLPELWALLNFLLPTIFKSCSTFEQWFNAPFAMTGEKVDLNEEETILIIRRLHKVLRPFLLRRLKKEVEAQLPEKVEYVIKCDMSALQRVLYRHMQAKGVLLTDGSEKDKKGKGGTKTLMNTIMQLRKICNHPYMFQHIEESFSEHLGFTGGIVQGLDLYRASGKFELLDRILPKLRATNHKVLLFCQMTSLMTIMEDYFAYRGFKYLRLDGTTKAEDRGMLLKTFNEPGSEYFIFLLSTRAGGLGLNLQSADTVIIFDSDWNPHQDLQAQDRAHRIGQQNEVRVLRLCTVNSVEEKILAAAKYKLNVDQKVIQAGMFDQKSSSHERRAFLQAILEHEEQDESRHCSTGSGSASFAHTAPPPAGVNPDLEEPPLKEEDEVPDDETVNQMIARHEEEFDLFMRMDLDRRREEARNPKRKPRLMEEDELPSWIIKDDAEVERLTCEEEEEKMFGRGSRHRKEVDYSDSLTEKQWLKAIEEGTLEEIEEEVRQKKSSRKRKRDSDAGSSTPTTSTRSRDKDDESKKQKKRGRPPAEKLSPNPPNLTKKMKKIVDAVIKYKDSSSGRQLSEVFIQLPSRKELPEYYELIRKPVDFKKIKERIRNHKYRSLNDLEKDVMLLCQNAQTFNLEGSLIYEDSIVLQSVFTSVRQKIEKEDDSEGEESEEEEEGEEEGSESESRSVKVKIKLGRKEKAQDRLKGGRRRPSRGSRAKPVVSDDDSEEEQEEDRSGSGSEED
Assay: HiBiT-BRG1 cell-based degradation assay (Nano-Glo HiBiT Lytic Detection, 24 h)
Conditions: HeLa cell line expressing HiBit-BRG1 and LgBit, read-out: BRG1 HiBit Degradation Maximum (%)
Dmax by entry:

>  <molecule>
Cc1ncsc1-c1ccc([C@H](C)NC(=O)[C@@H]2C[C@@H](O)CN2C(=O)[C@@H](c2cc(OCC(=O)N[C@@H]3CCc4[nH]c5nnc(-c6ccccc6O)cc5c4C3)no2)C(C)C)cc1

>  <Dmax>
> 50%

$$$$
>  <molecule>
Cc1ncsc1-c1ccc([C@H](C)NC(=O)[C@@H]2C[C@@H](O)CN2C(=O)[C@@H](c2cc(OCC(=O)N3CC4(Cc5cc(-c6ccccc6O)nnc5N4)C3)no2)C(C)C)cc1 (racemic)

>  <Dmax>
< 50%

$$$$
>  <molecule>
Cc1ncsc1-c1ccc([C@H](C)NC(=O)[C@@H]2C[C@@H](O)CN2C(=O)C(c2cc(N3CCC(C(=O)N4CC(c5c[nH]c6nnc(-c7ccccc7O)cc56)C4)CC3)no2)C(C)C)cc1 (mixture of isomers) [Compound 231]

>  <Dmax>
< 50%

$$$$
>  <molecule>
Cc1ncsc1-c1ccc([C@H](C)NC(=O)[C@@H]2C[C@@H](O)CN2C(=O)[C@@H](c2cc(N(C)CCN3CCc4[nH]c5nnc(-c6ccccc6O)cc5c4C3)no2)C(C)C)cc1 (racemic)

>  <Dmax>
< 50%

$$$$

Now consider a different molecule.
Given the molecule Cc1ncsc1-c1ccc([C@H](C)NC(=O)[C@@H]2C[C@@H](O)CN2C(=O)[C@@H](c2cc(N3CCN(C(=O)[C@H]4CCc5[nH]c6nnc(-c7ccccc7O)cc6c5C4)CC3)no2)C(C)C)cc1 (single isomer, unassigned) and test system HiBit-BRG1 fusion protein (Homo sapiens, UniProt P51532), the measured Dmax is > 75%
